For each of the compounds below, state its Ki.
Assayed System: PKC alpha kinase (Homo sapiens, UniProt P17252)
Experimental Details: PKC alpha kinase inhibition, coupled-enzyme NADH absorbance assay (Ki)
Type: biochemical
Experimental Conditions: 130 μM ATP, 4.5 nM PKC alpha, 30° C.; read-out: Ki PKC alpha

CCC(C)(C#N)c1cc(CCCO)cc(-c2ccnc3[nH]ncc23)c1 (stereo not drawn) [Compound 103] ... < 2800 nM

Give Ki for each listed item.
1. CC(C)(C#N)c1cc(NCCN)cc(-c2ccnc3[nH]ncc23)c1 [Compound 17]
2. Cc1cc(-c2ccnc3[nH]ncc23)cc(C2(CN)CNC(=O)O2)c1 (stereo not drawn) [Compound 310]
3. CC(O)c1cc(-c2ccnc3[nH]ncc23)cc(C(C)(C)C#N)c1 (stereo not drawn) [Compound 22]
4. OCC1CCc2ccc(-c3ccnc4[nH]ncc34)cc21 (stereo not drawn) [Compound 203]
5. CC#CCC(C)(CN)c1cccc(-c2ccnc3[nH]ncc23)c1 (stereo not drawn) [Compound 155]
6. CCC(CC)(CN)c1cccc(-c2ccnc3[nH]ncc23)c1 [Compound 47]

Result:
> 2800 nM
< 2800 nM
> 2800 nM
> 2800 nM
< 500 nM
< 500 nM

Field: Ki. Fill in for each record below.
1. NCC1(c2cc(F)cc(-c3ccnc4[nH]nc(Cl)c34)c2)CCC1 [Compound 255]
2. NC(CCC1CCCC1)c1cccc(-c2ccnc3[nH]ncc23)c1 (stereo not drawn) [Compound 253]

Result:
1: < 50 nM; 2: > 1200 nM

* * *

Please respond with reported pKi for every item in the list.
Assayed System: UniProtKB Q04759
Experimental Details: PKC theta kinase inhibition, coupled-enzyme NADH absorbance assay (Ki)
Format: biochemical
Experimental Conditions: 240 μM ATP, 18 nM PKC theta, 30° C.; read-out: Ki PKC theta
pKi: −log10 of the molar value.

Below are worked cases with known answers.
CCCC(C)(C#N)c1cccc(-c2ccnc3[nH]ncc23)c1 (stereo not drawn) ... > 5.55
C=Cc1ccc(-c2ccnc3n[nH]cc23)cc1C(C)(C)C#N ... > 5.55
NC[C@]1(c2cccc(-c3ccnc4[nH]ncc34)c2)CC[C@H](O)CC1 ... > 6.30
NCC1(c2cccc(-c3ccnc4[nH]ncc34)c2)CC(F)(F)C1 ... > 7.30
CCCc1cc(-c2ccnc3[nH]ncc23)cc(C2(CC#N)CCC2)c1 ... > 6.30

State recorded pKi for all listed compounds.
1. COCC[C@@](C)(CN)c1cccc(-c2ccnc3[nH]nc(C(F)(F)F)c23)c1
2. NC(CC1CCCCC1)c1cccc(-c2ccnc3[nH]nc(C(F)(F)F)c23)c1 (stereo not drawn)
3. c1cc(-c2ccnc3[nH]ncc23)cc(C2CCNCC2)c1
4. CC(C)(C#N)c1cc(C2=CCCCC2)cc(-c2ccnc3[nH]ncc23)c1

Result:
> 7.30
< 6.15
> 5.55
< 5.55

* * *

What pKi was measured for each of the following?
Assayed System: PKC theta kinase (Homo sapiens)
Sequence (Q04759 whole entry): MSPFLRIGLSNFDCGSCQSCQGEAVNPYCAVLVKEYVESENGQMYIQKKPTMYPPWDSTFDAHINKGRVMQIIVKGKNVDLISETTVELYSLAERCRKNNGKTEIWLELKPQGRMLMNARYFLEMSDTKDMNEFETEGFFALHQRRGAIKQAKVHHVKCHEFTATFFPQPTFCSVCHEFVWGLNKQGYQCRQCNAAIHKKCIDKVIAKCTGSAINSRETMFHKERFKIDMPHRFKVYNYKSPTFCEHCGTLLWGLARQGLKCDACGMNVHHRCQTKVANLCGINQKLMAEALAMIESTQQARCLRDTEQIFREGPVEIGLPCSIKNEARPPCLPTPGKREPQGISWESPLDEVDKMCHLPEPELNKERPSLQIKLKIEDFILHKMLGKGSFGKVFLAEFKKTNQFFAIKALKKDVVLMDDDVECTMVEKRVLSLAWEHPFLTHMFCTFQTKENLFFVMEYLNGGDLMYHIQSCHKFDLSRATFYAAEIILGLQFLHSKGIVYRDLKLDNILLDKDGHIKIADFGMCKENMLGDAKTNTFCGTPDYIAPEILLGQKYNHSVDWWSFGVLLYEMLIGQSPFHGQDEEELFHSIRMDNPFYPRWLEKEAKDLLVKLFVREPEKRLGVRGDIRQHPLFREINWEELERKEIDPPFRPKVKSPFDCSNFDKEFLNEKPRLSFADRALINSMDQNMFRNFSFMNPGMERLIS
Experimental Details: PKC theta kinase inhibition, coupled-enzyme NADH absorbance assay (Ki)
Format: biochemical
Experimental Conditions: 240 μM ATP, 18 nM PKC theta, 30° C.; read-out: Ki PKC theta
pKi: −log10 of the molar value.

Fill in pKi for each of the 3 compounds listed.
1. Cc1cc(-c2ccnc3[nH]ncc23)cc(C2(CN)CCCC2)c1 [Compound 189]
2. NCC1(c2cccc(-c3ccnc4[nH]ncc34)c2)CCCC1 [Compound 50]
3. Cc1cc(-c2ccnc3[nH]ncc23)cc(C(C)(C)C#N)c1 [Compound 5]

Result:
1. > 7.30
2. > 7.30
3. > 7.30
